Source of measurements: paper PMC12431657

test system: HCoV-229E; design: species or system Huh-7; HTS, protection from HCoV-229E induced cell death, luminescent cell viability (CellCounting-Lite 2.0), inhibition rate; settings: 24 h, 10 µM; inhibitor
Structures can show the parent of a compound that is named as a salt.
# if value of 229E Inhibition rate reaches 10%, tag True; if it stays below, tag False

Study these solved cases before continuing.
- compound: "C=C[C@@H](O)C#CC#C[C@@H](O)/C=C\\CCCCCCC"
  group: "True"
- compound: "C=C(C)c1cc2cc(C(C)=O)c(O)cc2o1"
  group: "True"
- compound: "CO[C@H]1CC=C2CCN3CCC4=C(CC(=O)OC4)[C@]23C1 [Dihydro-β-erythroidine (hydrobromide)]"
  group: "False"
- compound: "C[C@@H]1O[C@@H](O[C@@H]2C=C3CC[C@@H]4[C@H](CC[C@]5(C)[C@@H](c6ccc(=O)oc6)CC[C@]45O)[C@@]3(C)CC2)[C@H](O)[C@H](O)[C@H]1O"
  group: "True"
- compound: "CC1=C2C(=O)[C@H]3[C@@H](CC=C4C[C@@H](O)CC[C@@]43C)[C@@H]2CC[C@]12O[C@@H]1C[C@H](C)CN[C@H]1[C@H]2C"
  group: "False"
- compound: "O=C1C=C2C=C[C@@H]3C[C@@]2(O1)[C@H]1CCCCN31 [(-)-Securinine]"
  group: "True"

input: Check the entry "C[C@]12CC[C@H](O)C[C@H]1CC[C@@H]1[C@@H]2CC[C@]2(C)[C@@H](c3ccc(=O)oc3)CC[C@]12O" : does 229E Inhibition rate equal or exceed 10%?
output: True

input: Check the entry O=C1C=C2C(=CCOC2O)O1 (stereo not drawn) : does 229E Inhibition rate equal or exceed 10%?
output: False

input: Check the entry "C[C@H]1CC[C@@H]2N(C1)C[C@H]1[C@@H]3C[C@H]4[C@@H](CC(=O)[C@H]5C[C@H](O)CC[C@@]54C)[C@@H]3CC[C@H]1[C@]2(C)O" : does 229E Inhibition rate equal or exceed 10%?
output: False

input: Check the entry "C[C@H]1CC[C@@H]2[C@@H](C)[C@H]3[C@H](C[C@H]4[C@@H]5CC=C6C[C@@H](O[C@@H]7O[C@H](CO)[C@H](O)[C@H](O[C@@H]8O[C@H](CO)[C@@H](O)[C@H](O)[C@H]8O)[C@H]7O[C@@H]7O[C@@H](C)[C@H](O)[C@@H](O)[C@H]7O)CC[C@]6(C)[C@H]5CC[C@]34C)N2C1" : does 229E Inhibition rate equal or exceed 10%?
output: False
